Overview of reported ELISA signal across a group of binders:
- TARGET_OF_ASSAY: T1, His-tagged P3028 (human, not fully specified)
- T1 construct: the tag is put first after 'PGE73=His-tag-P3028'; also called PGE73; not shown: His-tag
- T1 peptide: {His‑tag}-VFDEFKPLVEEPQNLIK
- TEST_METHOD_NOTES: chip ELISA
No end group written: not given here.

BINDER	ELISA signal
KKLDTFFVKLFLFTER [P28R S11F]	250
KKLDTFFVKLSLFTEV [P28R R16V]	254
KKLDTYFVKLSLFTER [P28R F6Y]	364
KKLDTFHVKLSLFTER [P28R F7H]	364
